Assay: Inhibition of malate dehydrogenase in presence of 0.1% Triton X-100
This listing pairs compounds with measured IC50.
Give a bare numeral; the unit µM is implied.

Q: Quick one: IC50 for CCOC(=O)C1=C(c2ccccc2)NC(SCC(=O)Nc2ccc(C)cc2)=C(C#N)C1c1ccco1 (centres undefined) ?
Result: 106

Q: Fill in: IC50 of O=c1oc2c(O)c(O)cc3c(=O)oc4c(O)c(O)cc1c4c23 [ELLAGIC ACID] is ___
Result: 106

Q: Requested read-out: IC50. Entry: `C[C@H]1[C@H]2C=C[C@@H]1[C@@H](C(=O)O)[C@@H]2c1c2ccc(=O)c(O)c-2oc2c(O)c(O)ccc12`
Result: 45

Q: I would be grateful if you could share the reported IC50 for O=C(O)C1=CC(=C(c2ccc(O)c(C(=O)O)c2)c2ccc(O)c(C(=O)O)c2)C=CC1=O [AURINTRICARBOXYLIC ACID] .
Result: 30

----------
Parameter IC50: see the listing below.
Biological target: Cruzipain (Trypanosoma cruzi)
Sequence (P25779 whole entry): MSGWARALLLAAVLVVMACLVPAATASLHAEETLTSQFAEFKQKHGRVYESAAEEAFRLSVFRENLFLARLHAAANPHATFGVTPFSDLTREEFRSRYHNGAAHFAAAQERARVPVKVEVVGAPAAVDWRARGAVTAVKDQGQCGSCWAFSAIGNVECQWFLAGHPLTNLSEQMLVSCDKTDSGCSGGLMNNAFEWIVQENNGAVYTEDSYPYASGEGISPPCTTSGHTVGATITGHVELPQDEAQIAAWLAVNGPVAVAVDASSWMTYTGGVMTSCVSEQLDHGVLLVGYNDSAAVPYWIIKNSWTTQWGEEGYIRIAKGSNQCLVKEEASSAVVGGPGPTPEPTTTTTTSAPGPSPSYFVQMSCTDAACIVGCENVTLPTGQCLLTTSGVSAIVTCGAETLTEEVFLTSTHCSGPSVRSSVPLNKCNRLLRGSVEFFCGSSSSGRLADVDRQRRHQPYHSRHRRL
Test: Inhibition of cruzain in presence of 0.01% Triton X-100

Q: Give IC50 (Cruzipain (Trypanosoma cruzi)) of the following molecule: `CCCC12CN(C(=O)c3ccc(OC)cc3)CC(C)(CN(C(=O)c3ccc(OC)cc3)C1)C2=O`
Result: > 600 µM

Q: Test system Cruzipain (Trypanosoma cruzi); read-out IC50; what value for Cc1ccc(C)n1C(Cc1ccccc1)C(=O)O (centres undefined) ?
Result: > 600 µM

Q: Query the reported IC50 for Cruzipain (Trypanosoma cruzi); item: O=C(O)c1ccc2c(c1)C(=O)N(C(Cc1ccc(O)cc1)C(=O)O)C2=O (racemic)
Result: > 10000 µM

Q: # value lookup — system Cruzipain (Trypanosoma cruzi), readout IC50, item `Cc1occc1C(=O)n1nnc2ccccc21`
Result: < 600 µM

Q: Given the entry CC(C)[C@H](NC(=O)OC(C)(C)C)c1nnc(S(=O)(=O)Cc2c(F)cccc2Cl)o1 (stereo in doubt) , what IC50 was observed with Cruzipain (Trypanosoma cruzi)?
Result: < 1 µM

Q: API: value(readout=IC50, system=Cruzipain (Trypanosoma cruzi)) for record S=C(S)OC1CC2CC1C1CCCC21 (centres undefined)
Result: > 600 µM

Q: What reported IC50 corresponds to `CCOC(=O)/C(C(C)=O)=C1\OC(=O)c2ccccc21` on Cruzipain (Trypanosoma cruzi)?
Result: < 600 µM

Q: Any idea what IC50 came out for `C[C@H]1[C@H]2C=C[C@@H]1[C@@H](C(=O)O)[C@@H]2c1c2ccc(=O)c(O)c-2oc2c(O)c(O)ccc12` on Cruzipain (Trypanosoma cruzi)?
Result: 45 µM

Q: Recall the recorded IC50 for CC(C)[C@H](NC(=O)OC(C)(C)C)c1nnc(S(=O)(=O)Cc2c(F)cccc2Cl)o1 (stereo in doubt; 1) with Cruzipain (Trypanosoma cruzi) and state it.
Result: < 1 µM

----------
Assay: Inhibition of chymotrypsin in presence of 0.1% Triton X-100
pIC50: −log10 of the molar value.
result-type: pIC50

Q: Look up pIC50 for this compound: `C[C@H]1[C@H]2C=C[C@@H]1[C@@H](C(=O)O)[C@@H]2c1c2ccc(=O)c(O)c-2oc2c(O)c(O)ccc12`
Result: < 3.22

Q: Param item = `CS(=O)(=O)N1CCC(C(=O)N2CCC(Cc3ccccc3)CC2)CC1` ; retrieve measured pIC50.
Result: < 3.22

Q: Dear colleague, I am looking for the recorded pIC50 of the following compound: `O=c1oc2c(O)c(O)cc3c(=O)oc4c(O)c(O)cc1c4c23`
Result: > 3.22

Q: Look up pIC50: O=C(CC1(O)C(=O)Nc2cc(Cl)cc(Cl)c21)c1ccccc1O (stereo unspecified)
Result: < 3.22

Q: What value of pIC50 has been reported for the following compound? `CCCC12CN(C(=O)c3ccc(OC)cc3)CC(C)(CN(C(=O)c3ccc(OC)cc3)C1)C2=O`
Result: < 3.22

Q: # input compound: CCOC(=O)C1=C(c2ccccc2)NC(SCC(=O)Nc2ccc(C)cc2)=C(C#N)C1c1ccco1 (stereo unspecified) ; wanted: its pIC50
Result: < 3.22
